Condition label: in DMSO, 358.15 K

Smiles repr | solubility (mole fraction)
NC(N)=C([N+](=O)[O-])[N+](=O)[O-] | 0.242

* * *

Condition label: in water, 337.95 K
Quantity measured: solubility (mole fraction)

Smiles repr | Quantity measured | Result
NC(N)=C([N+](=O)[O-])[N+](=O)[O-] | solubility (mole fraction) | 0.000277

* * *

Condition label: in gamma-butyrolactone, 336.45 K
Quantity measured: solubility (mole fraction)

Smiles repr | Quantity measured | Result
NC(N)=C([N+](=O)[O-])[N+](=O)[O-] | solubility (mole fraction) | 0.0178

* * *

Condition label: in NMP, 371.75 K
Quantity measured: solubility (mole fraction)

Smiles repr | Numeric value
NC(N)=C([N+](=O)[O-])[N+](=O)[O-] | 0.246

* * *

Condition label: in ethyl acetate, 318.15 K
Quantity measured: solubility (mole fraction)

Smiles repr | Numeric value
NC(N)=C([N+](=O)[O-])[N+](=O)[O-] | 0.000282

* * *

Condition label: in water, 310.75 K
Quantity measured: solubility (mole fraction)

Smiles repr | Numeric value
NC(N)=C([N+](=O)[O-])[N+](=O)[O-] | 6e-05

* * *

Condition label: in ethyl acetate, 304.95 K
Quantity measured: solubility (mole fraction)

Smiles repr | Quantity measured | Result
NC(N)=C([N+](=O)[O-])[N+](=O)[O-] | solubility (mole fraction) | 0.000187

* * *

Condition label: in DEF, 349.85 K
Quantity measured: solubility (mole fraction)

Smiles repr | Quantity measured | Numeric value
NC(N)=C([N+](=O)[O-])[N+](=O)[O-] | solubility (mole fraction) | 0.112

* * *

Condition label: in DMF, 340.15 K

Smiles repr | solubility (mole fraction)
NC(N)=C([N+](=O)[O-])[N+](=O)[O-] | 0.136

* * *

Condition label: in cyclohexanone, 330.95 K
Quantity measured: solubility (mole fraction)

Smiles repr | Result
NC(N)=C([N+](=O)[O-])[N+](=O)[O-] | 0.00521

* * *

Condition label: in DMF, 361.05 K
Quantity measured: solubility (mole fraction)

Smiles repr | Quantity measured | Numeric value
NC(N)=C([N+](=O)[O-])[N+](=O)[O-] | solubility (mole fraction) | 0.161

* * *

Condition label: in 1,4-dioxane, 298.15 K

Smiles repr | solubility (mole fraction)
NC(N)=C([N+](=O)[O-])[N+](=O)[O-] | 7.2e-05

* * *

Condition label: in DMSO, 367.15 K

Smiles repr | solubility (mole fraction)
NC(N)=C([N+](=O)[O-])[N+](=O)[O-] | 0.261

Origin of the recorded values: BigSolDB 2.1
